Assay: Primary imaging screen for DUSP6 inhibitors that restore phospho-Erk in transfected HeLa cells, chemical complementation (AID 609)
Details: HeLa MKP-3 transfected, phospho-Erk imaging KS statistic; measured here: nuclear pErk red intensity z-score; at 10 µM; stronger effect = higher value; cells stimulated with TPA for 15 min
measured-endpoint: z-score
The reply should be a number, written without any unit.

These recorded examples may help you get a feel for the data.
# compound, measured-endpoint, observed-value
measured = [
    ("CC1(C)CC(=O)C=C(NCCO)C1", "z-score", -0.675),
    ("Fc1ccc(C(c2ccc(F)cc2)N2CCN(C/C=C/c3ccccc3)CC2)cc1", "z-score", -1.06),
    ("NS(=O)(=O)c1cc2c(cc1Cl)NCNS2(=O)=O", "z-score", -1.04),
    ("COc1ccc(Cn2ccnc2)cc1Br", "z-score", -0.19),
    ("CCOC(=O)C(OC(=O)c1sc(=S)n(C)c1C)C(C)=O (stereo unspecified)", "z-score", -0.266),
]

The value of z-score measured for the compound `Cc1cnc(C(=O)NCCc2ccc(S(=O)(=O)NC(=O)NC3CCCCC3)cc2)cn1` turned out to be -0.42

###

Target: Voltage-gated potassium channel subunit beta-2 (Rattus norvegicus) (UniProt P62483)
Sequence (P62483 whole entry, looked up): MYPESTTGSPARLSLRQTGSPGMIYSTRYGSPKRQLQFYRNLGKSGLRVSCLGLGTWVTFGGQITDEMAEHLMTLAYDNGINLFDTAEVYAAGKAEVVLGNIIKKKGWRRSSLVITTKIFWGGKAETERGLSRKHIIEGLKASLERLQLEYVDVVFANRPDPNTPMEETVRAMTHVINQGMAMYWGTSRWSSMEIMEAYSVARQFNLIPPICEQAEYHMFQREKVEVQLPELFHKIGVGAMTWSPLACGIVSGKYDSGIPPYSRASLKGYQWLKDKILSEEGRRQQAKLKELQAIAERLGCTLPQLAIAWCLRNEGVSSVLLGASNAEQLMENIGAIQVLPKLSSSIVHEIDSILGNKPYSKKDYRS
Assay: inhibitors of rat Kvbeta2 reductase activity – biochemical, NADPH fluorescence, primary screen (AID 622);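 further: slope of raw intensity against log time taken from 70 to 1610 s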
Conditions: recombinant KvBeta, 4-cyanobenzaldehyde reduction, at 10 µM, stronger effect = higher value
measured-endpoint: fluorescence slope
The reply should be a number, written without any unit.

These recorded examples may help you get a feel for the data.
# compound, tested-system, measured-endpoint, observed-value
rows = [
    ("Brc1ccc(-c2nnc3sc(CN4CCC5(CC4)OCCO5)cn23)cc1", "Voltage-gated potassium channel subunit beta-2 (Rattus norvegicus) (UniProt P62483)", "fluorescence slope", -0.57),
    ("Cc1nc2sc3c(c2c(=O)o1)CCC3", "Voltage-gated potassium channel subunit beta-2 (Rattus norvegicus) (UniProt P62483)", "fluorescence slope", -0.511),
    ("COC(=O)c1sc(NC(=O)c2ccoc2C)nc1C", "Voltage-gated potassium channel subunit beta-2 (Rattus norvegicus) (UniProt P62483)", "fluorescence slope", -0.557),
    ("COc1cccc(-n2c(C)nc3c(cnn3-c3ccc(C)cc3)c2=O)c1", "Voltage-gated potassium channel subunit beta-2 (Rattus norvegicus) (UniProt P62483)", "fluorescence slope", -0.577),
]

Next:
# fluorescence slope measured on Voltage-gated potassium channel subunit beta-2 (Rattus norvegicus) (UniProt P62483) for item `O=C(Nc1ccccc1N1CCN(C(=O)c2ccc(Cl)cc2)CC1)c1cc2ccccc2o1` = -0.549

###

Assay: reduction of polyQ htt aggregates in cells – imaging, exon1htt(103Q)mCFP cells, high-content imaging, primary screen (AID 483);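 further: compound exposure lasted 3 days before fixation; percent of the per-plate median nuclei count of sample wells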
Details: exon1htt(103Q)mCFP cell line, aggregate imaging, at 2 µM; measured here: cell count, toxicity
Catalogue of compounds with associated nuclei count
Give just the numeric value; % need not be written.

These recorded examples may help you get a feel for the data.
# compound, nuclei count / %
records = [
    ("CS(=O)(=O)N(CC(=O)N1CCN(c2cccc(Cl)c2)CC1)C1CCCCC1", 87.4),
    ("CCCCc1cc(=O)oc2cc(C)cc(OC(C)C(=O)O)c12 (centres undefined)", 110),
    ("COc1cc(Cn2c(C(=O)O)cc3sccc32)cc(OC)c1OC", 98.8),
    ("COc1ccc(Cc2nnc3n2N=C(c2cc4ccccc4o2)CS3)cc1OC", 43.3),
    ("CCOC(=O)c1ccccc1NC(=O)CSc1nc2c(c(=O)n(C)c(=O)n2C)n1C", 107),
]

The value of nuclei count measured for the compound `CN(C)S(=O)(=O)c1ccc(C(=O)N2CCC(c3nc4ccccc4o3)CC2)cc1` turned out to be 103

The value of nuclei count measured for the compound `COC(=O)c1nn(-c2ccc(-c3ccccc3)cc2)cc1O` turned out to be 99.2

The value of nuclei count measured for the compound COc1ccccc1CN1CC(C(=O)N2CCN(c3ccc(F)cc3)CC2)CC1=O (centres undefined) turned out to be 101

The value of nuclei count measured for the compound CC(C)NCC(O)COc1ccc(CC(N)=O)cc1 (centres undefined) turned out to be 97.3

The value of nuclei count measured for the compound `O=C(CNC(=O)c1cccs1)NCCN1CCN(c2ccccc2F)CC1` turned out to be 99.6

The value of nuclei count measured for the compound O=C(O)CC1CCCC(c2ccccc2)C1=O (centres undefined) turned out to be 103

The value of nuclei count measured for the compound `CCOC(=O)CN1C2=NCCN2c2ccccc21` turned out to be 76.3

The value of nuclei count measured for the compound `O=c1c2c(nc3nc(COc4ccccc4)[nH]n13)CCC2` turned out to be 100

The value of nuclei count measured for the compound COc1ccc(C2CC(=O)c3cnc(NC(=O)c4ccccc4OC)nc3C2)c(OC)c1 (centres undefined) turned out to be 94.2

The value of nuclei count measured for the compound `Nc1nc(SCCOc2ccccc2)n[nH]1` turned out to be 76.7

Source: PubChem BioAssay
